All figures here come from PubChem BioAssay (NCI).

# Tested on: CAKI-1 renal
# ASSAY: NCI-60 one-dose screen, 48 h (100 = growth as untreated, 0 = no growth, -100 = all killed)
# RUN_PARAMETERS: 10 µM unless noted
# Procedure: Growth inhibition of the CAKI-1 human tumor cell line is measured as a screen for anti-cancer activity. Cells are grown in 96 well plates and exposed to the test compound for 48 hours. Compounds are tested at a single concentration, which is 10^-5 M for most compounds. The reported endpoint is percent growth (GI% or GIPRCNT), where numbers from 0 - 100% represent growth inhibition, and numbers from -100% - 0 represent cell death. For example, a value of 40 represents 60% growth inhibition. […]
Compounds without any hit were thinned out: in the full panel of roughly 83,000, 20% have a hit. The source made the active and inactive calls. The calls were made as follows: active = growth percent below 10; inactive = the rest.
Recorded growth values for a group of molecules are listed next.

{"columns": ["MOLECULE_SMILES", "growth"],
 "data": [
  ["Nc1ccc(Cl)c([N+](=O)[O-])c1", "78.8% (inactive)"],
  ["C=C1C(=O)O[C@H]2[C@H]1CC/C(COC(=O)NCc1ccc(Cn3c(=O)sn(-c4ccc(Cl)cc4)c3=O)cc1)=C\\CC[C@@]1(C)O[C@@H]21", "61% (inactive)"],
  ["CC1(C)C(=O)/C(=C\\c2cccnc2)C[C@]2(C)[C@H]3CC[C@@H]4[C@H]5[C@H](C(=O)/C=C/c6cccnc6)CC[C@]5(C(=O)O)CC[C@@]4(C)[C@]3(C)CC[C@@H]12", "-66% [100 µM] (active)"],
  ["C[n+]1cccc(NC(=O)c2ccc3ccc4ccc(C(=O)Nc5ccc[n+](C)c5)nc4c3n2)c1", "52.3% (inactive)"],
  ["CC1=C/C(=C(\\c2cc(C)c(O)c(C(=O)O)c2)c2c(Cl)cccc2Cl)C=C(C(=O)O)C1=O", "88.1% (inactive)"],
  ["CCOC(=O)CCC[P+](c1ccccc1)(c1ccccc1)c1ccccc1", "101% (inactive)"],
  ["CCCCOC(=O)c1c(C)[nH]c(/C=C2\\N=C(c3ccc[nH]3)C=C2OC)c1C", "-29.2% (active)"],
  ["CC1(C)CC[C@]2(C(N)=O)CC[C@]3(C)C(=CC[C@@H]4[C@@]5(C)C/C(=C/c6ccncc6)C(=O)C(C)(C)[C@@H]5CC[C@]43C)[C@@H]2C1", "-58.3% [100 µM] (active)"],
  ["O=[N+]([O-])c1cccc(N=NNc2cccc([N+](=O)[O-])c2)c1", "87.5% (inactive)"],
  ["CC(C)c1ccc(/C=N/N=C(N)N)cc1", "50.9% (inactive)"],
  ["COc1cc2c(cc1OC(C)=O)C(=O)CCCC2", "73.8% (inactive)"],
  ["CC(C)CCNCC(C)(C)O", "99.1% (inactive)"],
  ["C#C[C@]1(O)CC[C@H]2[C@@H]3CC=C4c5nc(Nc6ncccn6)sc5CC[C@]4(C)[C@H]3CC[C@@]21C", "58.6% (inactive)"],
  ["CC1(C)CC[C@]2(C(=O)O)CC[C@]3(C)[C@H](CC[C@@H]4[C@@]5(C)CCC(=O)C(C)(C)[C@@H]5CC[C@]43C)[C@H]2[C@H]1OC(=O)C(F)(F)F", "-71.2% [100 µM] (active)"],
  ["Cc1ccc(NC(=S)/N=c2/n(-c3ccccc3)nc3n2CCN3C2=NCCN2)cc1", "86% (inactive)"],
  ["COC(=O)C(=Cc1ccccc1[N+](=O)[O-])C(=O)OC", "31.2% (inactive)"],
  ["CCOC(=O)c1nc2c3ccccc3ccn2c1C(=O)OC", "97.2% (inactive)"],
  ["CC(C)CSc1ncnc2nc[nH]c12", "98.6% (inactive)"],
  ["NS(=O)(=O)c1ccc(CCN2C(=O)/C(=C\\c3ccccc3)C=C2c2ccc(Cl)cc2)cc1", "65.1% (inactive)"]
]}

====

# Test system: UACC-62 melanoma
# ASSAY: NCI-60 one-dose screen, 48 h (100 = growth as untreated, 0 = no growth, -100 = all killed)
# RUN_PARAMETERS: 10 µM unless noted
About 83,000 compounds went through this panel and 20% of them were active in at least one assay; those are over-represented in the sample as a whole.

{"columns": ["MOLECULE_SMILES", "UNIT_OF_MEASURE", "growth"],
 "data": [
  ["COc1ccc(C2=C(c3cn(C)c4ccccc34)C(=O)OC2)cc1OC", "%", 26.8],
  ["O=S(=O)(/N=c1/n(-c2ccccc2)nc2n1CCN2C1=NCCN1)c1ccc(-c2ccccc2)cc1", "%", 109],
  ["COc1cc2c(c(OC)c1OC)-c1cc(I)c(O)cc1[C@@H](NC(C)=O)CC2", "%", 17.8],
  ["Cc1cc(NN=C(c2ccc(O)cc2)c2ccc(O)cc2)c([N+](=O)[O-])cc1[N+](=O)[O-]", "%", 69.1],
  ["Clc1ccc(/C=N/Nc2nc3ccccc3s2)c(Cl)c1", "%", 103],
  ["COc1cc(Cl)cc(-c2nn(C(=O)NS(=O)(=O)c3ccccc3)cc2-c2ccncc2)c1", "%", 82.7],
  ["O=C(O)CSCc1nnc2n(Cc3ccccc3)c(=O)c3c4c(sc3n12)CCCC4", "%", 75.4],
  ["O=C1NC(=O)c2cc([N+](=O)[O-])cc3cccc1c23", "%", 87],
  ["O=C(Oc1ccc(Cl)cc1[N+](=O)[O-])Oc1ccc(Cl)cc1[N+](=O)[O-]", "%", 113],
  ["c1ccc(-c2n[nH]c(-c3ccccn3)n2)nc1", "%", 104]
]}

====

# System: A498 renal
# ASSAY: NCI-60 one-dose screen, 48 h
# RUN_PARAMETERS: 10 µM unless noted
# Procedure: Growth inhibition of the A498 human tumor cell line is measured as a screen for anti-cancer activity. Cells are grown in 96 well plates and exposed to the test compound for 48 hours. Compounds are tested at a single concentration, which is 10^-5 M for most compounds. The reported endpoint is percent growth (GI% or GIPRCNT), where numbers from 0 - 100% represent growth inhibition, and numbers from -100% - 0 represent cell death. For example, a value of 40 represents 60% growth inhibition. […]
About 83,000 compounds went through this panel and 20% of them were active in at least one assay; those are over-represented in the sample as a whole. The source made the active and inactive calls. How the source made its calls: active means growth percent below 10; inactive means the rest.
Possible outcomes: active, inactive

{"columns": ["COMPOUND", "QUALITATIVE_LABEL"],
 "data": [
  ["Cc1ccc2c(c1)C(C)Cc1c(Cl)ncnc1N2C (stereo unspecified)", "active"],
  ["COc1c(C(C)=O)c(OCCCCOc2c(C(C)=O)c(OC)c3ccoc3c2OC)c(OC)c2occc12", "inactive"],
  ["CCOC(=O)c1nn(C2CCCCO2)c2ccc(NC(=O)CSc3nc4ccccc4c(=O)[nH]3)cc12 (stereo unspecified)", "inactive"],
  ["Nc1nc(Nc2ccccc2)c2ncn(Cc3cc4c(cc3Br)OCO4)c2n1", "active"],
  ["Cc1ccc(C2=C/C(=C/c3ccc(Br)cc3)C(=O)N2CCc2ccc(S(N)(=O)=O)cc2)cc1", "inactive"],
  ["CCOc1cccc2c(NC(C)CCCN(CC)CC)c(C)cnc12 (stereo unspecified)", "inactive"],
  ["CC(C)c1ccc(C(=O)Nc2sc3c(c2C#N)CCC(=O)C3)cc1", "inactive"],
  ["CCCCCCCCCCCCCCCCCCNC(=S)N/N=C/c1ccc(OC)c(OC)c1", "inactive"],
  ["Cc1cc(N2CCCCCC2)nc(N2CCN(CC(=O)Nc3ccc4c(ccn4Cc4ccccc4)c3)CC2)n1", "active"],
  ["CSc1nc2c(c(=O)n1C)C1(C(=O)N(Cc3ccccc3)c3ccccc31)c1c(nc(SC)n(C)c1=O)N2", "inactive"],
  ["O=C(O)c1cccc(CN2CCN(c3cc4c(cc3F)c(=O)c(C(=O)O)cn4C3CC3)CC2)c1O", "inactive"],
  ["COc1ccc(/C=C2\\N=C(Nc3ccccc3)N(NC(=O)c3ccccn3)C2=O)cc1", "inactive"],
  ["C=C(C)[C@@H]1CC[C@]2(COC(=O)c3ccccc3C(=O)O)CC[C@]3(C)[C@H](CC[C@@H]4[C@@]5(C)CC[C@H](OC(=O)c6ccccc6C(=O)O)C(C)(C)[C@@H]5CC[C@]43C)[C@@H]12", "active"],
  ["CC(=O)O.CC(=O)O.O.[Fe]", "inactive"],
  ["Nc1nc(SCc2cccc([N+](=O)[O-])c2)c2[nH]cnc2n1", "inactive"],
  ["Nc1nnc(CSc2nnc3n(Cc4ccccc4)c(=O)c4c5c(sc4n23)CCCC5)s1", "inactive"],
  ["COc1ccc2nc3ccccc3c(NCCNCCO)c2c1", "active"],
  ["N#C/C(=C(/O)CCCO)c1nc2ccccc2c(=O)[nH]1", "inactive"],
  ["CC[C@@](C)(NC(=O)[C@H](C)NC(=O)CCNC(=O)C(C)(C)NC(=O)[C@H](C)NC(=O)[C@@H]1CCCN1C(=O)[C@@](C)(CC)NC(=O)[C@H](Cc1ccccc1)NC(=O)C1CCCN1C(=O)C(C)(C)NC(=O)C1CCCN1C(=O)C(C)(C)NC(C)=O)C(=O)NCCC(=O)N[C@@H](CC(C)C)C(=O)NC(C)(C)C(=O)NCCC(=O)N[C@@H](CC(C)C)C(=O)NC(C)(C)C(=O)NC(C)(C)C(=O)N[C@@H](CC(C)C)C(=O)NCCC(=O)NCO (stereo partly specified)", "active"],
  ["C=CCc1nc2ccccc2s1", "inactive"],
  ["Cc1cccc(C[C@H](NC(=O)Nc2ccc(Cl)cc2F)C(=O)N[C@@H]2C(=O)N3C[C@H](OC(=O)CCN(C)C)C[C@H]3C(=O)N3CCCC[C@H]3C(=O)N[C@@H](C)C(=O)N3C[C@H](C)C[C@H]3C(=O)O[C@H]2C)c1", "active"],
  ["COc1ccc(C2NC(=O)C(C#N)c3c2sc2c(F)cccc32)cc1 (stereo unspecified)", "inactive"],
  ["CN(C)Cc1ccc[nH]1", "inactive"],
  ["O=C1/C(=C\\c2cccn2Cc2ccccc2)c2ccccc2N1c1c(Cl)cccc1Cl", "inactive"],
  ["CC1Cc2c(Cl)ncnc2N(C)c2ccc(O)cc21 (stereo unspecified)", "inactive"],
  ["N#C/C(C(=O)c1ccccc1)=C1/C(=O)Nc2ccc(Br)cc21", "inactive"],
  ["CC(=O)OC[C@]12CC[C@@H](C(=O)CBr)[C@@H]1[C@H]1CC[C@@H]3[C@@]4(C)CCCNC(C)(C)[C@@H]4CC[C@@]3(C)[C@]1(C)CC2", "active"],
  ["CN(C)c1ccc(N=Nc2ccc3ccccc3c2)cc1", "inactive"],
  ["Nc1nc(Nc2ccccc2)c2ncn(Cc3ccc4c(c3)OCO4)c2n1", "inactive"],
  ["O=C(Nc1cccnc1)c1ccc2ccc3ccc(C(=O)Nc4cccnc4)nc3c2n1", "active"],
  ["O=C(Nc1cc(F)cc2cccnc12)c1cnc(N2CCNCC2)cn1", "inactive"],
  ["Cc1cc(-c2ccc(N=Nc3c(S(=O)(=O)O)cc4cc(S(=O)(=O)O)cc(N)c4c3O)c(C)c2)ccc1N=Nc1cc(S(=O)(=O)O)c2ccccc2c1O", "inactive"],
  ["CCn1cc(-c2cc(-c3ccc(Cl)cc3)nc(N)n2)c(-c2ccc(Br)cc2)n1", "inactive"],
  ["CNc1cc(C(=O)O)nc(NC)n1", "inactive"],
  ["CCN(CC)CCCC(C)Nc1ccnc2cc(Cl)c(SCc3ccccc3)cc12 (stereo unspecified)", "active"],
  ["CC/C=C(\\C)C(CCC)(CN=O)C(=O)OCC (stereo unspecified)", "inactive"]
]}
